Below, each of the compounds is paired with its reported pIC50 value.
System: MIA PaCa-2
Assay: Anti-proliferation 2D CTG test (MIA PaCa-2)
Type: cell-based
Settings: MIAPACA-2 cells, 500 cells/well, 5 days incubation with compound, CTG readout
Note on units: pIC50 is unitless, being -log10 of a concentration expressed in mol/L.

>  <COMPOUND>
C=CC(=O)N1C[C@H](C)N(c2nc(=O)n3c4nc(c(F)cc24)-c2c(ccc(Cl)c2F)OCC(O)C(OCC)c2ccnc(C(C)C)c2-3)C[C@H]1C (stereo partly drawn) [Example 70]

>  <VALUE>
8.15

$$$$
>  <COMPOUND>
C=CC(=O)N1CCN(c2nc(=O)n3c4nc(c(F)cc24)-c2c(F)cccc2OCC(OC(C)C)C(O)c2ccnc(C(C)C)c2-3)[C@@H](C)C1 (stereo partly drawn) [Example 34]

>  <VALUE>
8.15

$$$$
>  <COMPOUND>
C=CC(=O)N1CCN(c2nc(=O)n3c4nc(c(F)cc24)-c2c(F)cccc2OCC(OCC)C(O)c2ccnc(C(C)C)c2-3)[C@@H](C)C1 (stereo partly drawn) [Example 45]

>  <VALUE>
8.70

$$$$

Sample C=CC(=O)N1C[C@H](C)N(c2nc(=O)n3c4nc(c(F)cc24)-c2c(F)cccc2OCC(O)C(OCC)c2ccnc(C(C)C)c2-3)C[C@H]1C (stereo partly drawn) [Example 35] ; pIC50 observed: 8.40

Sample C=CC(=O)N1CCN(c2nc(=O)n3c4nc(c(F)cc24)-c2c(F)cccc2OCC(OC(C)=O)C(OC(C)=O)c2ccnc(C(C)C)c2-3)[C@@H](C)C1 (stereo partly drawn) [Example 18-R] ; pIC50 observed: 7.82

Sample C=CC(=O)N1CCN(c2nc(=O)n3c4nc(c(F)cc24)-c2c(F)cccc2OCC(OCC)C(O)c2ccnc(C(C)C)c2-3)[C@@H](C)C1 (stereo partly drawn) [Example 29] ; pIC50 observed: 8.22

* * *

Tested on: H358
Assay: Anti-proliferation 2D CTG test (H358)
Assay type: cell-based
Conditions: H358 cells, 1500 cells/well, 5 days incubation with compound, CTG readout
PARAMETER_MEASURED: pIC50
Note on units: pIC50 is unitless, being -log10 of a concentration expressed in mol/L.

Answered cases to consult:
>  <MOLECULE>
C=CC(=O)N1CCN(c2nc(=O)n3c4nc(c(F)cc24)-c2c(ccc(Cl)c2F)OCC(O)C(O)c2ccnc(C(C)C)c2-3)[C@@H](C)C1 (stereo partly drawn) [Example 67]

>  <VALUE>
5.88

$$$$
>  <MOLECULE>
C=CC(=O)N1CCN(c2nc(=O)n3c4nc(c(F)cc24)-c2c(F)cccc2OCC(O)C(OC)c2ccnc(C(C)C)c2-3)[C@@H](C)C1 (stereo partly drawn) [Example 42]

>  <VALUE>
6.01

$$$$
>  <MOLECULE>
C=CC(=O)N1CCN(c2nc(=O)n3c4nc(c(F)cc24)-c2c(F)cccc2OCC(O)C(OC)c2ccnc(C(C)C)c2-3)[C@@H](C)C1 (stereo partly drawn) [Example 41]

>  <VALUE>
8.52

$$$$
>  <MOLECULE>
C=CC(=O)N1C[C@H](C)N(c2nc(=O)n3c4nc(c(F)cc24)-c2c(ccc(Cl)c2F)OCC(O)C(OCC)c2ccnc(C(C)C)c2-3)C[C@H]1C (stereo partly drawn) [Example 77]

>  <VALUE>
6.28

$$$$
>  <MOLECULE>
C=CC(=O)N1CCN(c2nc(=O)n3c4nc(c(F)cc24)-c2c(F)cccc2OCC(OCCF)C(O)c2ccnc(C(C)C)c2-3)[C@@H](C)C1 (stereo partly drawn) [Example 25]

>  <VALUE>
7.44

$$$$

Sample C=CC(=O)N1CCN(c2nc(=O)n3c4nc(c(F)cc24)-c2c(ccc(Cl)c2F)OCC(OCC)C(O)c2ccnc(C(C)C)c2-3)[C@@H](C)C1 (stereo partly drawn) [Example 75] ; pIC50 observed: 8.52
